Target: recombinant human 15-PGDH (Homo sapiens, UniProt P15428)
Construct: purchased R&D Systems
Sequence (P15428 whole entry): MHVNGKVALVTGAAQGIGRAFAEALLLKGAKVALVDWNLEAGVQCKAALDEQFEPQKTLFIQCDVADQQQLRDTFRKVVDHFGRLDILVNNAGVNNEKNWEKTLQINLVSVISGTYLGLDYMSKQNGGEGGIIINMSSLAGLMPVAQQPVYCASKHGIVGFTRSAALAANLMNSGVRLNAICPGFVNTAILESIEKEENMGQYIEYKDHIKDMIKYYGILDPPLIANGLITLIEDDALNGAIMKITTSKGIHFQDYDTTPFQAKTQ
Assay: 15-PGDH enzyme inhibition test
Type: biochemical
Conditions: 4 nM recombinant human 15-PGDH, 30 μM PGE2, 1 mM NAD+, 60 minutes after starting the reaction; read-out: IC50 Value
Protocol: 15-PGDH Enzyme Inhibition Test A test compound and 4 nM recombinant human 15-PGDH (R&D Systems) were added, in 50 mM Tris-HCl (pH 8.0) containing 0.01% TWEEN 20 (Sigma) and 0.01% bovine gamma globulin (Sigma), to a 384-well Flat Bottom Black plate (Corning, 3820), and the resultant was allowed to stand still at room temperature for 12 minutes, and 30 μM PGE2 (Cayman Chemical) and 1 mM NAD+ (Sigma) were added thereto to start the reaction. […]
QUANTITY: IC50

MOLECULE: COC(=O)c1ccc(N2CCc3cc(C(=O)N4CCCCC4)ccc32)cc1 [Example 1-140]
VALUE: < 10 nM
//
MOLECULE: COC(=O)c1ccccc1N1CCOc2cc(C(=O)N3CCCCC3)cnc21 [Example 1-263]
VALUE: > 100 nM
//
MOLECULE: COC(=O)c1ccc(N2CCOc3cc(C(=O)N4CCCCC4)cnc32)cc1 [Example 1-261]
VALUE: < 10 nM
//
MOLECULE: CN1Cc2cc(N3CCOc4cc(C(=O)N5CCCCC5)cnc43)cnc2C1=O [Example 1-101]
VALUE: < 10 nM
//
MOLECULE: CCN1Cc2cc(N3CCCc4cc(C(=O)N5CCC(F)CC5)cnc43)ccc2C1=O [Example 8-86]
VALUE: < 10 nM
//
MOLECULE: CCn1nc2cc(N3CCOc4cc(C(=O)N5CCN(C(C)=O)CC5)cnc43)ccn2c1=O [Example 8-219]
VALUE: > 100 nM
//
MOLECULE: O=C(O)c1ccc(N2CCOc3cc(C(=O)N4CCCCC4)c(Cl)cc32)cc1 [Example 2-3]
VALUE: < 10 nM
//
MOLECULE: Cn1nc2cc(N3CCOc4cc(C(=O)N5CCCCCC5)cnc43)ccn2c1=O [Example 8-102]
VALUE: < 10 nM
//
MOLECULE: Cn1nc2cc(N3CCc4cc(C(=O)N5CCCCC5)cnc43)ccn2c1=O [Example 1-109]
VALUE: < 10 nM
//
MOLECULE: Cn1nc2cc(N3CCOc4cc(C(=O)N5CCOCC5)cnc43)ccn2c1=O [Example 8-225]
VALUE: 10 to 100 nM
//
MOLECULE: COC(=O)c1ccc(N2CCCc3cc(C(=O)N4CCCCC4)cnc32)cc1 [Example 1-205]
VALUE: < 10 nM
//
MOLECULE: O=C(c1cnc2c(c1)OCCN2c1ccn2ncnc2c1)N1CCCCC1 [Example 1-106]
VALUE: < 10 nM
//
MOLECULE: Cn1nc2cc(N3CCOc4cc(C(=O)N5C=CCCC5)cnc43)ccn2c1=O [Example 37-1]
VALUE: < 10 nM
//
MOLECULE: CC(O)CCNC(=O)c1cnc2c(c1)OCCN2c1ccn2c(=O)n(C)nc2c1 (stereo not drawn) [Example 8-180]
VALUE: 10 to 100 nM
//
MOLECULE: CCn1nc2cc(N3CCOc4cc(C(=O)N5CCCCCCC5)cnc43)ccn2c1=O [Example 8-17]
VALUE: < 10 nM
//
MOLECULE: CC(=O)NC(C)(C)c1ccc(N2CCOc3cc(C(=O)N4CCCCC4)cnc32)cc1 [Example 31-1]
VALUE: > 100 nM
//
MOLECULE: Cn1nc2cc(N3CCOc4cc(C(=O)N5CCCC(C)(C)C5)cnc43)ccn2c1=O [Example 8-110]
VALUE: < 10 nM
//
MOLECULE: CN1CCN(c2ccn3c(=O)n(C)nc3c2)c2ncc(C(=O)N3CCC(F)(F)CC3)cc21 [Example 29-4]
VALUE: < 10 nM
//
MOLECULE: Cn1ncc2cc(N3CCOc4cc(C(=O)N5CCCCC5)cnc43)ccc2c1=O [Example 1-218]
VALUE: < 10 nM
//
MOLECULE: CN(C)CCn1nc2cc(N3CCOc4cc(C(=O)N5CCCCC5)cnc43)ccn2c1=O [Example 1-33]
VALUE: < 10 nM
//
MOLECULE: CNC(=O)Cn1nc2cc(N3CCOc4cc(C(=O)N5CCCCC5)cnc43)ccn2c1=O [Example 6-7]
VALUE: < 10 nM

Each recorded value in this set is attributed to patent US12577217B2.
